Molecular target: V2-vasopressin receptors (Sus scrofa)
Construct: in the medullary tissue of hog kidneys
Sequence (P32307 whole entry): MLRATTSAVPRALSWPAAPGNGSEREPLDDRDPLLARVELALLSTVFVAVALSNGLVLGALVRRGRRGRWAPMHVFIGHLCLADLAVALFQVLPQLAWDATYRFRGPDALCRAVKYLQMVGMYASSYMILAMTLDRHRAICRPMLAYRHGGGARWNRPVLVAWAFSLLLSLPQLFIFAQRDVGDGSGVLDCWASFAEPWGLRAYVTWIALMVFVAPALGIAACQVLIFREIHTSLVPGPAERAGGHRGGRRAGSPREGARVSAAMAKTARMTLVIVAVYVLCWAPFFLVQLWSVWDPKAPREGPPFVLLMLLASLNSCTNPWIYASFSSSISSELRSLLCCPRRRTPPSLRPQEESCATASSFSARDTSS
Assay: inhibition of adenylate cyclase activation by vasopressin in the medullary tissue of hog kidneys
Conditions: hog kidney medullary tissue, vasopressin-activated adenylate cyclase; read-out: Pig V2 Ki
*1 amine or outer side, *2 acyl side, *3 side chain or, on linkers, in order; H or OH if unused. Where a SMILES comes first, the peptide text is derived from it. Bridges are numbered along the chain shown (N, C = ends). [ ]: non-standard residue; d: D form. X1 = O=C(CC1(S[*:2])CCCCC1)[*:1]; αMeV = CC(C)[C@](C)(N)C(=O)O; Aib = CC(C)(N)C(=O)O
Item-by-item account of Ki
Test readout: Ki (nM)

| Compound | Recorded number |
| --- | --- |
| CCOc1ccc(C[C@H]2NC(=O)CC3(CCCCC3)SSC[C@@H](C(=O)N3CCC[C@H]3C(=O)N[C@@H](CCCNC(=N)N)C(N)=O)NC(=O)[C@H](CC(N)=O)NC(=O)C(C)(C)NC(=O)[C@H](Cc3ccccc3)NC2=O)cc1 [B] ([dY](Et)F[Aib]NCPR-NH2; linker N-5 via X1) | 140 |
| CCOc1ccc(C[C@H]2NC(=O)CC3(CCCCC3)SSC[C@@H](C(=O)N3CCC[C@H]3C(=O)N[C@@H](CCCNC(=N)N)C(=O)NCC(N)=O)NC(=O)[C@H](CC(N)=O)NC(=O)[C@](C)(C(C)C)NC(=O)[C@H](Cc3ccccc3)NC2=O)cc1 [C] ([dY](Et)F[αMeV]NCPRG-NH2; linker N-5 via X1) | 31 |
| COc1ccc(C[C@@H]2NC(=O)CC3(CCCCC3)SSC[C@@H](C(=O)N3CCC[C@H]3C(=O)N[C@@H](CCCN=C(N)N)C(=O)NCC(N)=O)NC(=O)[C@H](CC(N)=O)NC(=O)[C@H](C(C)C)NC(=O)[C@H](Cc3ccccc3)NC2=O)cc1 [F, reference compound] (Y(Me)FVNCPRG-NH2; linker N-5 via X1) | 88 |
| CCOc1ccc(C[C@H]2NC(=O)CC3(CCCCC3)SSC[C@@H](C(=O)NC(C)(C)C(=O)N[C@@H](CCCNC(=N)N)C(N)=O)NC(=O)[C@H](CC(N)=O)NC(=O)[C@H](C(C)C)NC(=O)[C@H](Cc3ccccc3)NC2=O)cc1 [E] ([dY](Et)FVNC[Aib]R-NH2; linker N-5 via X1) | 16 |
| CCOc1ccc(C[C@H]2NC(=O)CC3(CCCCC3)SSC[C@@H](C(=O)NC(C)(C)C(=O)N[C@@H](CCCNC(=N)N)C(=O)NCC(N)=O)NC(=O)[C@H](CC(N)=O)NC(=O)[C@H](C(C)C)NC(=O)[C@H](Cc3ccccc3)NC2=O)cc1 [A] ([dY](Et)FVNC[Aib]RG-NH2; linker N-5 via X1) | 18 |
| COc1ccc(C[C@@H]2NC(=O)CC3(CCCCC3)SSC[C@@H](C(=O)N3CCC[C@H]3C(=O)N[C@@H](CCCNC(=N)N)C(=O)NCC(N)=O)NC(=O)[C@H](CC(N)=O)NC(=O)[C@](C)(C(C)C)NC(=O)[C@H](Cc3ccccc3)NC2=O)cc1 [D] (Y(Me)F[αMeV]NCPRG-NH2; linker N-5 via X1) | 490 |
